Quick reference for pEC50 among some molecules
- study_target: Oxysterols receptor LXR-beta (Homo sapiens)
- Sequence (P55055 whole entry, the tested form may be a part): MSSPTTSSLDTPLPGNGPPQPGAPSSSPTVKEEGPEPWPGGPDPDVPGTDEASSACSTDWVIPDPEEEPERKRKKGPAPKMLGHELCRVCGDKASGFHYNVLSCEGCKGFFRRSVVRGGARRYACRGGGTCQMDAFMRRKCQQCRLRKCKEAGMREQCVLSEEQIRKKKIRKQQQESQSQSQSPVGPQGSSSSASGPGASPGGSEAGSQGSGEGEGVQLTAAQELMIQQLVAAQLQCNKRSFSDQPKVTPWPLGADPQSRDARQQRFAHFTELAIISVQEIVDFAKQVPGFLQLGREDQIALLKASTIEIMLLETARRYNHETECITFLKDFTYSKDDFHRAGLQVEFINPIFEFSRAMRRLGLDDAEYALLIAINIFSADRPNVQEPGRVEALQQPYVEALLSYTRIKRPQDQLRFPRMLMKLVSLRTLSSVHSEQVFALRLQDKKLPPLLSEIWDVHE
- assay_procedure: Agonist activity at human recombinant LXRbeta ligand binding domain in human HuH7 cells co-transfected with fused Gal4-DBD by transactivation assay
Please treat pEC50 as minus the base-10 logarithm of the molar concentration.

INSERT INTO measurements (molecule, value) VALUES
  ('O=C(O)Cc1ccc(CNc2cccc(-c3c(Cc4ccccc4)cnc4c(C(F)(F)F)cccc34)c2)cc1', 7.05),
  ('Fc1ccc(-c2c3cccc(C(F)(F)F)c3nn2Cc2ccccc2F)cc1', 5.38),
  ('O=C(O)Cc1cccc(OCCCN(Cc2cccc(C(F)(F)F)c2Cl)CC(c2ccccc2)c2ccccc2)c1', 6.51);

Problem: # query: pEC50 | item Fc1ccc(-c2c3cccc(C(F)(F)F)c3nn2Cc2ccc(F)cc2Cl)cc1 [LXR-623] | system: Oxysterols receptor LXR-beta (Homo sapiens)
Solution: 5.44

====

- System: HepG2
- assay_procedure: Effect on SREBP1c gene expression in human HepG2 cells relative to TO901317
- Assay type: functional
Please assign not fulfilled whenever Efficacy is at or above 70%, and fulfilled whenever it is below.

Worked cases, answers included:
INSERT INTO assay_data (cpd_smiles, group_label) VALUES
  ('Fc1ccc(-c2c3cccc(C(F)(F)F)c3nn2Cc2ccc(F)cc2Cl)cc1', 'fulfilled'),
  ('O=C(O)Cc1cccc(OCCCN(Cc2cccc(C(F)(F)F)c2Cl)CC(c2ccccc2)c2ccccc2)c1', 'not fulfilled'),
  ('O=C(O)Cc1ccc(COc2cccc(-c3c(Cc4ccccc4)cnc4c(C(F)(F)F)cccc34)c2)cc1', 'not fulfilled');

Moving on to the next compound.
Problem: Consider O=S(=O)(c1ccccc1)N(CC(F)(F)F)c1ccc(C(O)(C(F)(F)F)C(F)(F)F)cc1 . Does its Efficacy lie strictly below 70%?
Solution: not fulfilled

====

- Test system: THP-1
- assay_procedure: Stimulation of [3H]cholesterol efflux in human THP1 foam cells loaded with ac-LDL relative to TO901317
- Assay type: functional
Quick reference for Efficacy among some molecules
Give the number; % is assumed, so skip it.

Here are 2 molecules together with their reported answers.
INSERT INTO results (cpd_smiles, endpoint, unit_string, value) VALUES
  ('Fc1ccc(-c2c3cccc(C(F)(F)F)c3nn2Cc2ccccc2F)cc1', 'Efficacy', '%', 132),
  ('Fc1ccc(-c2c3cccc(C(F)(F)F)c3nn2Cc2ccc(F)cc2Cl)cc1', 'Efficacy', '%', 140);

Problem: Request the reported Efficacy associated with O=S(=O)(c1ccccc1)N(CC(F)(F)F)c1ccc(C(O)(C(F)(F)F)C(F)(F)F)cc1
Solution: 100

Problem: Request the reported Efficacy associated with O=C(O)Cc1cccc(OCCCN(Cc2cccc(C(F)(F)F)c2Cl)CC(c2ccccc2)c2ccccc2)c1
Solution: 84

Problem: Request the reported Efficacy associated with O=C(O)Cc1ccc(COc2cccc(-c3c(Cc4ccccc4)cnc4c(C(F)(F)F)cccc34)c2)cc1
Solution: 88

====

- assay_procedure: Cmax in male C57 mice after 10 mg/kg oral dose
- Format: ADME, organism-based
- Set-up: dose 10 mg/kg, route oral
- condition_details: C57, mouse, in vivo
Quick reference for Cmax among some compounds
Give the number; ng/mL is assumed, so skip it.

INSERT INTO assay_data (cpd_smiles, endpoint, unit_string, value) VALUES
  ('FC(F)(F)c1cccc2c(-c3ccccc3)n(Cc3ccccc3)nc12', 'Cmax', 'ng/mL', 124);

Below: the item to evaluate.
Problem: Request the reported Cmax associated with Fc1ccc(-c2c3cccc(C(F)(F)F)c3nn2Cc2ccccc2F)cc1
Solution: 633
